# MIC listing for each entry below
Tested on: Enterococcus faecalis
Assay: Antimicrobial activity against daptomycin-resistant Enterococcus faecalis ATCC 49452 incubated anaerobically at 37 degC for 48 hrs by agar dilution method
Format: functional
Details: ATCC 49452, 48 h
Numeric answer only, unit µg/mL assumed.

Completed entries (count: 2):
CCCCCCOc1ccc(-c2csc(C(=O)N[C@@H](Cc3c[nH]c4ccccc34)C(=O)N[C@@H](CC(N)=O)C(=O)N[C@@H](CC(=O)O)C(=O)N[C@@H]3C(=O)NCC(=O)N[C@@H](CCCN)C(=O)NC(CC(=O)O)C(=O)N[C@H](C)C(=O)N[C@@H](CC(=O)O)C(=O)NCC(=O)N[C@H](CO)C(=O)N[C@@H]([C@@H](C)CC(=O)O)C(=O)N[C@@H](CC(=O)c4ccccc4N)C(=O)O[C@@H]3C)c2)cc1 (single isomer, unassigned)
8
CCCCCOc1ccc(-c2ccc(C(=O)N[C@@H](Cc3c[nH]c4ccccc34)C(=O)N[C@@H](CC(N)=O)C(=O)N[C@@H](CC(=O)O)C(=O)N[C@@H]3C(=O)NCC(=O)N[C@@H](CCCN)C(=O)N[C@H](CC(=O)O)C(=O)N[C@H](C)C(=O)N[C@@H](CC(=O)O)C(=O)NCC(=O)N[C@H](CO)C(=O)N[C@@H]([C@@H](C)CC(=O)O)C(=O)N[C@@H](CC(=O)c4ccccc4N)C(=O)O[C@@H]3C)cc2)cc1
4

We now examine a further molecule.
Could you tell me which MIC is on file for `CCCCCC12CCC(C(=O)N[C@@H](Cc3c[nH]c4ccccc34)C(=O)N[C@@H](CC(N)=O)C(=O)N[C@@H](CC(=O)O)C(=O)N[C@@H]3C(=O)NCC(=O)N[C@@H](CCCN)C(=O)N[C@H](CC(=O)O)C(=O)N[C@H](C)C(=O)N[C@@H](CC(=O)O)C(=O)NCC(=O)N[C@H](CO)C(=O)N[C@@H]([C@@H](C)CC(=O)O)C(=O)N[C@@H](CC(=O)c4ccccc4N)C(=O)O[C@@H]3C)(CC1)CC2` ?
32

---

Test system: Enterococcus faecium
Test: Antimicrobial activity against daptomycin-resistant Enterococcus faecium ATCC 6569 incubated anaerobically at 37 degC for 48 hrs by agar dilution method
Assay type: functional
Conditions: ATCC 6569, 48 h
observable: MIC

Completed entries (count: 3):
CCCCCc1ccc(/C(C)=C/C(=O)N[C@@H](Cc2c[nH]c3ccccc23)C(=O)N[C@H](CC(N)=O)C(=O)N[C@@H](CC(=O)O)C(=O)N[C@@H]2C(=O)NCC(=O)N[C@@H](CCCN)C(=O)N[C@@H](CC(=O)O)C(=O)N[C@H](C)C(=O)N[C@@H](CC(=O)O)C(=O)NCC(=O)N[C@H](CO)C(=O)N[C@@H]([C@@H](C)CC(=O)O)C(=O)N[C@@H](CC(=O)c3ccccc3N)C(=O)O[C@@H]2C)cc1
4 µg/mL
C[C@H]1NC(=O)C(CC(=O)O)NC(=O)[C@H](CCCN)NC(=O)CNC(=O)[C@@H](NC(=O)[C@H](CC(=O)O)NC(=O)[C@H](CC(N)=O)NC(=O)[C@H](Cc2c[nH]c3ccccc23)NC(=O)CCCCCCC2CCCCC2)[C@@H](C)OC(=O)[C@H](CC(=O)c2ccccc2N)NC(=O)[C@H]([C@@H](C)CC(=O)O)NC(=O)[C@@H](CO)NC(=O)CNC(=O)[C@H](CC(=O)O)NC1=O (single isomer, unassigned)
8 µg/mL
CCCCCCCCOc1ccc(-c2ccc(C(=O)N[C@@H](Cc3c[nH]c4ccccc34)C(=O)N[C@@H](CC(N)=O)C(=O)N[C@@H](CC(=O)O)C(=O)N[C@@H]3C(=O)NCC(=O)N[C@@H](CCCN)C(=O)N[C@H](CC(=O)O)C(=O)N[C@H](C)C(=O)N[C@@H](CC(=O)O)C(=O)NCC(=O)N[C@H](CO)C(=O)N[C@@H]([C@@H](C)CC(=O)O)C(=O)N[C@@H](CC(=O)c4ccccc4N)C(=O)O[C@@H]3C)cc2)cc1
4 µg/mL

Could you tell me which MIC is on file for `CCCCCCCc1csc(C(=O)N[C@@H](Cc2c[nH]c3ccccc23)C(=O)N[C@@H](CC(N)=O)C(=O)N[C@@H](CC(=O)O)C(=O)N[C@@H]2C(=O)NCC(=O)N[C@@H](CCCN)C(=O)N[C@H](CC(=O)O)C(=O)N[C@H](C)C(=O)N[C@@H](CC(=O)O)C(=O)NCC(=O)N[C@H](CO)C(=O)N[C@@H]([C@@H](C)CC(=O)O)C(=O)N[C@@H](CC(=O)c3ccccc3N)C(=O)O[C@@H]2C)c1` ?
16 µg/mL

Could you tell me which MIC is on file for CCCCCCCCCCC(=O)N[C@@H](Cc1c[nH]c2ccccc12)C(=O)N[C@@H](CC(N)=O)C(=O)N[C@@H](CC(=O)O)C(=O)N[C@@H]1C(=O)NCC(=O)N[C@@H](CCCN)C(=O)NC(CC(=O)O)C(=O)N[C@H](C)C(=O)N[C@@H](CC(=O)O)C(=O)NCC(=O)N[C@H](CO)C(=O)N[C@@H]([C@@H](C)CC(=O)O)C(=O)N[C@@H](CC(=O)c2ccccc2N)C(=O)O[C@@H]1C (single isomer, unassigned) ?
> 32 µg/mL

---

System: Clostridioides difficile
Assay: Antimicrobial activity against daptomycin-resistant Clostridium difficile NAP1 incubated anaerobically at 37 degC for 48 hrs by agar dilution method
Type: functional
Conditions: NAP1, 48 h
observable: MIC (µg/mL)
Numeric answer only, unit µg/mL assumed.

Completed entries (count: 4):
CC(C)CCCCCCCCCCC(=O)N[C@@H](Cc1c[nH]c2ccccc12)C(=O)N[C@@H](CC(N)=O)C(=O)N[C@@H](CC(=O)O)C(=O)N[C@@H]1C(=O)NCC(=O)N[C@@H](CCCN)C(=O)NC(CC(=O)O)C(=O)N[C@H](C)C(=O)N[C@@H](CC(=O)O)C(=O)NCC(=O)N[C@H](CO)C(=O)N[C@@H]([C@@H](C)CC(=O)O)C(=O)N[C@@H](CC(=O)c2ccccc2N)C(=O)O[C@@H]1C (single isomer, unassigned)
1
CCCCCCCCCCCCCCC(=O)N[C@@H](Cc1c[nH]c2ccccc12)C(=O)N[C@@H](CC(N)=O)C(=O)N[C@@H](CC(=O)O)C(=O)N[C@@H]1C(=O)NCC(=O)N[C@@H](CCCN)C(=O)NC(CC(=O)O)C(=O)N[C@H](C)C(=O)N[C@@H](CC(=O)O)C(=O)NCC(=O)N[C@H](CO)C(=O)N[C@@H]([C@@H](C)CC(=O)O)C(=O)N[C@@H](CC(=O)c2ccccc2N)C(=O)O[C@@H]1C (single isomer, unassigned)
16
CCCCCC12CCC(C(=O)N[C@@H](Cc3c[nH]c4ccccc34)C(=O)N[C@@H](CC(N)=O)C(=O)N[C@@H](CC(=O)O)C(=O)N[C@@H]3C(=O)NCC(=O)N[C@@H](CCCN)C(=O)N[C@H](CC(=O)O)C(=O)N[C@H](C)C(=O)N[C@@H](CC(=O)O)C(=O)NCC(=O)N[C@H](CO)C(=O)N[C@@H]([C@@H](C)CC(=O)O)C(=O)N[C@@H](CC(=O)c4ccccc4N)C(=O)O[C@@H]3C)(CC1)CC2
1
CCCCCCOc1ccc(-c2ccc(C(=O)N[C@@H](Cc3c[nH]c4ccccc34)C(=O)N[C@@H](CC(N)=O)C(=O)N[C@@H](CC(=O)O)C(=O)N[C@@H]3C(=O)NCC(=O)N[C@@H](CCCN)C(=O)N[C@H](CC(=O)O)C(=O)N[C@H](C)C(=O)N[C@@H](CC(=O)O)C(=O)NCC(=O)N[C@H](CO)C(=O)N[C@@H]([C@@H](C)CC(=O)O)C(=O)N[C@@H](CC(=O)c4ccccc4N)C(=O)O[C@@H]3C)cc2)cc1
2

We now examine a further compound.
Find the measured MIC: item CC(C)CCCCCCCCCC(=O)N[C@@H](Cc1c[nH]c2ccccc12)C(=O)N[C@@H](CC(N)=O)C(=O)N[C@@H](CC(=O)O)C(=O)N[C@@H]1C(=O)NCC(=O)N[C@@H](CCCN)C(=O)NC(CC(=O)O)C(=O)N[C@H](C)C(=O)N[C@@H](CC(=O)O)C(=O)NCC(=O)N[C@H](CO)C(=O)N[C@@H]([C@@H](C)CC(=O)O)C(=O)N[C@@H](CC(=O)c2ccccc2N)C(=O)O[C@@H]1C (single isomer, unassigned) , target or system Clostridioides difficile.
1

---

System: Staphylococcus aureus
Assay: Antimicrobial activity against daptomycin-susceptible Staphylococcus aureus ATCC 29213 incubated anaerobically at 37 degC for 48 hrs by agar dilution method
Type: functional
Conditions: ATCC 29213, 48 h
observable: MIC (µg/mL)
Numeric answer only, unit µg/mL assumed.

C[C@H]1NC(=O)C(CC(=O)O)NC(=O)[C@H](CCCN)NC(=O)CNC(=O)[C@@H](NC(=O)[C@H](CC(=O)O)NC(=O)[C@H](CC(N)=O)NC(=O)[C@H](Cc2c[nH]c3ccccc23)NC(=O)CCCCCCc2ccccc2)[C@@H](C)OC(=O)[C@H](CC(=O)c2ccccc2N)NC(=O)[C@H]([C@@H](C)CC(=O)O)NC(=O)[C@@H](CO)NC(=O)CNC(=O)[C@H](CC(=O)O)NC1=O (single isomer, unassigned)
16

We now examine a further molecule.
Could you tell me which MIC is on file for `CCCCCCCc1csc(C(=O)N[C@@H](Cc2c[nH]c3ccccc23)C(=O)N[C@@H](CC(N)=O)C(=O)N[C@@H](CC(=O)O)C(=O)N[C@@H]2C(=O)NCC(=O)N[C@@H](CCCN)C(=O)N[C@H](CC(=O)O)C(=O)N[C@H](C)C(=O)N[C@@H](CC(=O)O)C(=O)NCC(=O)N[C@H](CO)C(=O)N[C@@H]([C@@H](C)CC(=O)O)C(=O)N[C@@H](CC(=O)c3ccccc3N)C(=O)O[C@@H]2C)c1` ?
0.125
